Values compiled from the RNAGym collection of RNA variant scans (doi:10.7554/elife.90254).

Listed here are variants together with their documented self-cleavage.
B1: OR4K15 (parent)
chain: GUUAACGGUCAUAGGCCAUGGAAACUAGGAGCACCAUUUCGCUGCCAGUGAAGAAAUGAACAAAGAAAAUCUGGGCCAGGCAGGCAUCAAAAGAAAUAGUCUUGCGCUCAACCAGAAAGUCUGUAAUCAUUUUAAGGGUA

Variants of: B1
Assay: self-cleavage, relative activity (ratio to wild type); higher = more cleavage; in vitro, sequencing; the parent is a self-cleaving ribozyme
Number, no unit, nothing else.

residue-string	self-cleavage
GUUAACGGUCAUAGGCCAUGGAAACUAGGAGCACCAUUCCGCUGCCAGUGAAGAACUGAACAAAGAAAAUCUGGGCCAGGCAGGCAUCAAAAGAAAUAGUCUUGCGCUCAACCAGAAAGUCUGUAAUCAUUUUAAGGGUA [U39C A56C]	0.43

// next entry
Bench note: what self-cleavage did GUUAGCGGUCAUAGGCCAUGGAAACUAGGAGCACCAUUUCGCUGCCAGUGAAGAAAUGAACAAAGAAAAUCUGGGCCAGGCAGGCAUCAAAAGAAAUAGUCUUGCGCUCAACCAGAAAGUCUGCAAUCAUUUUAAGGGUA [A5G U124C] show?
0.58
